These measurements were taken from PubChem BioAssay AID1963964.

# Test system: 997726-040-R-J2-PDC tumor spheroids, viability
# Procedure Details: Anticancer human tumor 997726-040-R-J2-PDC patient-derived squamous cell lung carcinoma cell line growth inhibition [PI3K]; active = viability on the fitted dose curve at most 10% of control; inactive = the rest
# Condition Parameters: second compound 0.316 µM; first compound 0.0316 µM; spheroids with HUVEC and MSC
Your answer must be one of the following: active, inactive

Dear colleague, could you share the recorded outcome for CC(Cn1ccc(-c2ccc(C#N)c(Cl)c2)n1)NC(=O)c1cc(C(C)O)[nH]n1 (stereo unspecified) + CC(Nc1ncnc2nc[nH]c12)c1cc2cccc(Cl)c2c(=O)n1-c1ccccc1 when you have a moment?
inactive

* * *

# Test system: 997726-040-R-J2-PDC tumor spheroids, viability
# Procedure Details: Anticancer human tumor 997726-040-R-J2-PDC cell line growth inhibition [PI3K];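 note: spheroids exposed to compounds for seven days before readout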
# Condition Parameters: compound 0.01 µM; stronger effect = lower value; spheroids with HUVEC and MSC
# Description: Combinatorial screen of targeted agents with the PI3K inhibitors inavolisib, alpelisib, duvelisib, and copanlisib in multi-cell type tumor spheroids A high-throughput screen of multi-cell type tumor spheroids was designed to identify active combinations of targeted small molecules and PI3K pathway inhibitors. […] Compounds. […] If the clinical Cmax for an agent had not been determined, the highest concentration tested was 10 microM. […]
Measured Attribute: viability, T/C

Use the examples below as a reference point.
Recorded viability, T/C for CC(C)n1nc(-c2ccc3oc(N)nc3c2)c2c(N)ncnc21 , please?
68% [middle of 4 runs]

Using the record for CC(Nc1ccc2c(c1)OCCn1cc(N3C(=O)OCC3C(F)F)nc1-2)C(N)=O (stereo unspecified) , report its viability, T/C.
81.8% [middle of 8 runs]

Report viability, T/C for CCN1CCN(Cc2ccc(Nc3ncc(F)c(-c4cc(F)c5nc(C)n(C(C)C)c5c4)n3)nc2)CC1 please.
88.4% [middle of 4 runs]

Fill in: viability, T/C of COc1c(OCCCN2CCOCC2)ccc2c3n(c(=NC(=O)c4cnc(N)nc4)nc12)CCN3 is ___
58.9% [middle of 8 runs]

# input compound: Cn1ncnc1[C@H]1c2n[nH]c(=O)c3cc(F)cc(c23)N[C@@H]1c1ccc(F)cc1 ; wanted: its viability, T/C
98.5% [middle of 4 runs]

Okay, now this compound:
Returns the measured viability, T/C for the input compound. Input: CC(=O)c1c(C)c2cnc(Nc3ccc(N4CCNCC4)cn3)nc2n(C2CCCC2)c1=O
91.3% [middle of 4 runs]

* * *

# Tested on: 997726-040-R-J2-PDC tumor spheroids, viability
# Procedure Details: Anticancer human tumor 997726-040-R-J2-PDC cell line growth inhibition [PI3K];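 note: spheroids exposed to compounds for seven days before readout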
# Condition Parameters: second compound 0.01 µM; first compound 0.316 µM; stronger effect = lower value; spheroids with HUVEC and MSC
Measured Attribute: viability, T/C (%)
// note: answer is a bare numeric in %

Solved cases below.
Query (compound): Cn1nccc1Nc1nccc(-c2ccn(C(CO)c3ccc(Cl)c(F)c3)c(=O)c2)n1 (stereo not given) + COc1c(OCCCN2CCOCC2)ccc2c3n(c(=NC(=O)c4cnc(N)nc4)nc12)CCN3 ; field requested: viability, T/C
40.3

Bench note: what viability, T/C did CCCS(=O)(=O)Nc1ccc(F)c(C(=O)c2c[nH]c3ncc(-c4ccc(Cl)cc4)cc23)c1F + CC(Nc1ccc2c(c1)OCCn1cc(N3C(=O)OCC3C(F)F)nc1-2)C(N)=O show?
90.7

Which viability, T/C reading was recorded for the compound CC(C)NCC(C(=O)N1CCN(c2ncnc3c2C(C)CC3O)CC1)c1ccc(Cl)cc1 (stereo not given) + COc1c(OCCCN2CCOCC2)ccc2c3n(c(=NC(=O)c4cnc(N)nc4)nc12)CCN3 ?
42.8

Sample CCN1CCN(Cc2ccc(Nc3ncc(F)c(-c4cc(F)c5nc(C)n(C(C)C)c5c4)n3)nc2)CC1 + COc1c(OCCCN2CCOCC2)ccc2c3n(c(=NC(=O)c4cnc(N)nc4)nc12)CCN3 — what was its viability, T/C?
41.5

As a next step, examine the compound that follows.
Given the compound CNC(=O)c1ccc(N2C(=S)N(c3ccc(C#N)c(C(F)(F)F)c3)C(=O)C2(C)C)cc1F + COc1c(OCCCN2CCOCC2)ccc2c3n(c(=NC(=O)c4cnc(N)nc4)nc12)CCN3 , what is its reported viability, T/C?
54.8
